Assay: Solubility of the compound in PG/EtOH96
Type: physicochemical
measured.metric: solubility

Exercise: Find the measured solubility of Cc1cc(COc2ccc(S(=O)(=O)N3CCN(C(=O)C(C)(C)C)C(C(=O)NO)C3)cc2)c2c(n1)CCCC2 (stereo unspecified) and report it.
Key: > 55 µM

----------
Biological target: Disintegrin and metalloproteinase domain-containing protein 17 (Homo sapiens, UniProt P78536)
Sequence (P78536 whole entry, the tested form may be a part): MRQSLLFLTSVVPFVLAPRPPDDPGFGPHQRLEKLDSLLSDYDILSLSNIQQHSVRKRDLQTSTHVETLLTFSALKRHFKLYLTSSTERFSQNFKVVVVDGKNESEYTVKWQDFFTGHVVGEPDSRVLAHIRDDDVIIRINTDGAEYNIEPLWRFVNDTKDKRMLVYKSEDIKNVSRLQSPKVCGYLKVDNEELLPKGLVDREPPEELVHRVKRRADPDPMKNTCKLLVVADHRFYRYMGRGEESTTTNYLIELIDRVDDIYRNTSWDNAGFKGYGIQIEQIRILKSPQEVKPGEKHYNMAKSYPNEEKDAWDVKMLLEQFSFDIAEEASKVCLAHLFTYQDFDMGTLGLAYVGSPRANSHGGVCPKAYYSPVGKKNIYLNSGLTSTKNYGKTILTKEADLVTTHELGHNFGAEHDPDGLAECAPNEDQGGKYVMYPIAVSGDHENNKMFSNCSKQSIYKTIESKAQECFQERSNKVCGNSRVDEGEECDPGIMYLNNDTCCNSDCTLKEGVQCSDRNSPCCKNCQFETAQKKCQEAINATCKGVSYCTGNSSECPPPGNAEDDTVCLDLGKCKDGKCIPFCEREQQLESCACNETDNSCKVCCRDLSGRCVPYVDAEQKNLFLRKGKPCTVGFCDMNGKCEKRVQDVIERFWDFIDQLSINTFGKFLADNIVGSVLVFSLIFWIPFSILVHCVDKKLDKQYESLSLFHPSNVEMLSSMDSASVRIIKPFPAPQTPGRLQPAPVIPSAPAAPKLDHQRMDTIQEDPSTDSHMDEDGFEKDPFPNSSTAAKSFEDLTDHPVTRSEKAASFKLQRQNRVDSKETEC
Assay: Inhibition of TACE in human PBMC assessed as inhibition of LPS-stimulated TNFalpha production
measured.metric: pIC50
Quick note: pIC50 means taking -log10 of the concentration in moles per liter.

Worked set:
structure_string=COc1cc(COc2ccc3c(c2)NCCN([C@H](CCCCNS(C)(=O)=O)C(=O)NO)S3)cc(OC)c1 reading=5.72
structure_string=COC(=O)CCC[C@H](C(=O)NO)N1CCNc2cc(OCc3cc(OC)cc(OC)c3)ccc2S1 reading=6.05
structure_string=COc1cc(COc2ccc3c(c2)NCCN([C@H](CC(C)C)C(=O)NO)S3)cc(OC)c1 reading=5.27
structure_string=Cc1nc(COc2ccc3c(c2)NCCN([C@@H](C(=O)NO)C(C)C)S3)sc1C reading=4.61
structure_string=C[C@H](C(=O)NO)N1CCNc2cc(Oc3ccc([N+](=O)[O-])cc3)ccc2S1 reading=5.92

Exercise: Supply measured pIC50 of `CCOc1cc(COc2ccc3c(c2)NCCN([C@H](CCCC(=O)OC)C(=O)NO)S3)cc(OCC)c1` in your reply.
Key: 5.96

Exercise: Please indicate pIC50 recorded for `CCOc1cc(COc2ccc3c(c2)NCCN([C@H](CCC(=O)OC)C(=O)NO)S3)cc(OCC)c1`
Key: 5.21

Exercise: Annotate the compound `C[C@H](C(=O)NO)N1CCNc2cc(OCc3cc(Cl)cc(Cl)c3)ccc2S1` with its measured pIC50.
Key: 6.03
